# credit: paper PMC10937556

Target: COX-1 (Ovis aries, UniProt P05979)
Sequence (P05979 25-600): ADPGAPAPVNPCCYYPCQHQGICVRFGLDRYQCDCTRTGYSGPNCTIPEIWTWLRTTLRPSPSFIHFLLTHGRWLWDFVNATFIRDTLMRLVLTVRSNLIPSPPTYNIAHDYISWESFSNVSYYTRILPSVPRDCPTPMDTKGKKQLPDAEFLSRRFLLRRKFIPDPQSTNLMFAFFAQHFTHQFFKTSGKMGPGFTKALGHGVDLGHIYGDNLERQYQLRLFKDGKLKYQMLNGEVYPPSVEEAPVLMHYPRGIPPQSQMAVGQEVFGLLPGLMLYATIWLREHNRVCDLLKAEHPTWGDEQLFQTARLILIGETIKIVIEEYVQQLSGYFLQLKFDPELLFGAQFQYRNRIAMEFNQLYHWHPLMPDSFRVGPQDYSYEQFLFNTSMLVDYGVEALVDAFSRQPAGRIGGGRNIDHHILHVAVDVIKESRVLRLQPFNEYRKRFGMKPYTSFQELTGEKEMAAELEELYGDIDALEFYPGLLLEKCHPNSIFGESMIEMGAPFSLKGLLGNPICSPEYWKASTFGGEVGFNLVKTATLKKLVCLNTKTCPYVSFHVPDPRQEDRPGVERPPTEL
Assay: Cyclooxygenase COX-1 inhibition assay
Type: biochemical
Settings: 125 µg/mL; read-out: % COX-1 inhibition
result_type: inhibition at 125 µg/mL (%)
The reply should be a number in %, with the unit left off.

| molecule | units_label | inhibition at 125 µg/mL |
| --- | --- | --- |
| CC1=C(O)C(=O)C(O)CO1 (stereo not shown) | % | 46.4 |
| C=Cc1cc(OC)c(O)c(OC)c1 | % | 41.4 |
| C=Cc1ccc(O)cc1OC | % | 42.7 |

q: Send back COX-1 (Ovis aries, UniProt P05979) inhibition at 125 µg/mL of Cc1cnc(O)nc1O only.
a: 55.4
